Tested on: Plasmodium falciparum
measurement protocol: Antimalarial activity against chloroquine-resistant Plasmodium falciparum W2
Format: functional, organism-based
parameter measured: log10 of IC50 (log10 of the value in µg/mL)

# compound, result value
data = [
    ("[C-]#[N+][C@@H]1[C@H](C(C)C)CC[C@@H](C)[C@@]12C=C(C)CC2 [AXISONITRILE 3]", -1.78),
    ("OC(c1cc(C(F)(F)F)nc2c(C(F)(F)F)cccc12)C1CCCCN1 (stereo not drawn) [MEFLOQUINE]", -3.31),
    ("C[C@@H]1CC[C@H]2[C@@H](C)C(=O)O[C@@H]3O[C@@]4(C)CC[C@@H]1[C@]32OO4 [ARTEMISININ]", -3.15),
    ("C=C[C@H]1CN2CC[C@H]1C[C@H]2[C@H](O)c1ccnc2ccc(OC)cc12 [QUININE]", -1.62),
    ("CC1=C[C@]2(CC1)[C@H](C)CC[C@@H](C(C)C)[C@H]2N=C=S", 0.49),
    ("C=C(C)[C@H]1CC[C@@]2(C)CCC[C@@](C)(N=C=S)[C@@H]2C1", -0.26),
    ("C[C@H]1CCC[C@]2(C)CC[C@H](C(C)(C)N=C=S)C=C12", -0.21),
]

Value source: ChEMBL document CHEMBL1150068
